Biological target: G3BP1 NTF2-like domain (1-139) F124W (human, UniProt Q13283 1-139, F124W)
Sequence (Q13283 1-139 F124W): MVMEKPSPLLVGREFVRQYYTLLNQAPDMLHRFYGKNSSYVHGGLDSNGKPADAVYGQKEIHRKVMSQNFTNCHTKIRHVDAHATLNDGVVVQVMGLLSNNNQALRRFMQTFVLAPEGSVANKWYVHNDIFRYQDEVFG
Assay: fluorescence polarisation
Where no end group is shown, it is not given here. Ahx = NCCCCCC(=O)O
Parameter Measured: pKd
pKd field: float, defined as -log10 of concentration (mol/L).

pKd for {fluorescein-Ahx}-YNFIQDSMLDFE [Caprin1-derived dodecamer reporter peptide F*-YNFIQDSMLDFE] ?
5.77
